Measured values drawn from patent US20020035111A1 for this set.

Parameter threshold = 200 °C. Response is Met when melting point meets or exceeds it, else Not met.

Compound	Classification
Cc1ccc([C@H]2c3[nH]c4ccccc4c3C[C@@H]3C(=O)N(C)CC(=O)N23)o1 (relative stereo)	Met
O=C1[C@H]2Cc3c([nH]c4ccccc34)[C@H](c3ccc4c(c3)OCO4)N2C(=O)CN1CC(F)(F)F (relative stereo)	Met
CCCCN1CC(=O)N2[C@@H](c3ccccc3Cl)c3[nH]c4ccccc4c3C[C@@H]2C1=O (relative stereo)	Not met
Cc1ccc([C@H]2c3[nH]c4ccccc4c3C[C@@H]3C(=O)N(C)CC(=O)N23)s1 (relative stereo)	Met
CN1CC(=O)N2[C@@H](c3ccc(Br)s3)c3[nH]c4ccccc4c3C[C@@H]2C1=O (relative stereo)	Met
CN1CC(=O)N2[C@@H](c3ccc4c(c3)CCCC4)c3[nH]c4ccccc4c3C[C@@H]2C1=O (relative stereo)	Met
O=C1[C@H]2Cc3c([nH]c4ccccc34)[C@@H](c3ccc4c(c3)OCO4)N2C(=O)CN1Cc1ccco1	Met
CC(C)c1ccc([C@H]2c3[nH]c4ccccc4c3C[C@@H]3C(=O)N(C)CC(=O)N23)cc1 (relative stereo)	Met
CN1CC(=O)N2[C@@H](c3ccoc3)c3[nH]c4ccccc4c3C[C@@H]2C1=O (relative stereo)	Met
CCCCN1CC(=O)N2[C@@H](c3ccc(NS(C)(=O)=O)cc3)c3[nH]c4ccccc4c3C[C@@H]2C1=O (relative stereo)	Not met
COc1ccc([C@H]2c3[nH]c4ccc(F)cc4c3C[C@@H]3C(=O)N(CC(F)(F)F)CC(=O)N23)cc1 (relative stereo)	Not met

----------
This listing pairs compounds with measured melting point.
Endpoint: melting point (°C)

Compound	Endpoint	Observed
CN1CC(=O)N2[C@H](c3ccc4c(c3)CCN4)c3[nH]c4ccccc4c3C[C@@H]2C1=O	melting point	240
COc1ccc([C@H]2c3[nH]c4ccccc4c3C[C@@H]3C(=O)N(CC(F)(F)F)CC(=O)N23)cc1 (relative stereo)	melting point	232
O=C1[C@H]2Cc3c([nH]c4ccccc34)[C@@H](c3ccc4c(c3)CCC4)N2C(=O)CN1CC1CC1	melting point	176
CN1CC(=O)N2[C@@H](c3cc(Br)cs3)c3[nH]c4ccccc4c3C[C@@H]2C1=O (relative stereo)	melting point	292

----------
This listing pairs compounds with measured melting point.

Compound	melting point
CC(C)N1CC(=O)N2[C@@H](c3ccc4c(c3)OCO4)c3[nH]c4ccccc4c3C[C@@H]2C1=O (relative stereo)	248 to 250 °C
C[C@@H]1NC(=O)[C@H]2Cc3c([nH]c4ccccc34)[C@@H](c3ccc4occc4c3)N2C1=O	150 to 151 °C
COc1ccc([C@H]2c3[nH]c4ccccc4c3C[C@@H]3C(=O)N(Cc4ccccc4)CC(=O)N23)cc1 (relative stereo)	275 to 279 °C
CC(C)N1CC(=O)N2[C@H](c3ccc4occc4c3)c3[nH]c4ccccc4c3C[C@@H]2C1=O	291 to 292 °C
COc1ccc([C@@H]2c3[nH]c4ccccc4c3C[C@@H]3C(=O)N(C4CCCC4)CC(=O)N23)cc1	210 to 211 °C
O=C1[C@H]2Cc3c([nH]c4ccccc34)[C@H](c3ccc4c(c3)OCO4)N2C(=O)CN1Cc1ccccc1 (relative stereo)	285 to 287 °C
COc1ccc(CCN2CC(=O)N3[C@H](c4ccc5c(c4)OCO5)c4[nH]c5ccccc5c4C[C@@H]3C2=O)cc1OC	265 to 266 °C
CN1CC(=O)N2[C@H](c3ccc4occc4c3)c3[nH]c4ccccc4c3C[C@@H]2C1=O	291 to 293 °C
CCCCN1CC(=O)N2[C@@H](c3ccc(C)cc3)c3[nH]c4ccccc4c3C[C@@H]2C1=O (relative stereo)	194 °C
O=C1[C@H]2Cc3c([nH]c4ccccc34)[C@H](c3ccc4c(c3)CCO4)N2C(=O)CN1CC1CC1 (relative stereo)	165 to 166 °C
CCCCN1CC(=O)N2[C@H](c3ccc(OC)cc3)c3[nH]c4ccccc4c3C[C@@H]2C1=O	183 to 184 °C
CN1CC(=O)N2[C@H](c3ccc(O)c(O)c3)c3[nH]c4ccccc4c3C[C@@H]2C1=O	224 to 226 °C
